Listed here are molecules together with their documented chromatographic logD.
# assaySummary: CHI Log D procedure
# Assay type: physicochemical
# testConditions: pH 7.4, CHI Log D

| molecule | assayMetric | value |
| --- | --- | --- |
| CC(=O)N1CCC[C@]12CC=CCCCC1(CCCC=CCCCOC(=O)N3CC[C@@](C(=O)N[C@@H](Cc4ccsc4)C(=O)N[C@@H](Cc4csc5ccccc45)C(=O)N[C@@H](CCC(N)=O)C(N)=O)(C3)NC(=O)[C@H](Cc3ccccc3)NC(=O)[C@H](Cc3ccccc3)NC(=O)[C@H](C)NC(=O)[C@H](C)NC(=O)[C@H](Cc3ccccc3C(=O)O)NC(=O)[C@H](CC(=O)O)NC1=O)NC(=O)[C@H](CC(C)(C)C)NC(=O)[C@H](CC(=O)O)NC2=O (some centres unmarked) | chromatographic logD | 2.52 |

Could you tell me which chromatographic logD is on file for CCCC[C@@H]1NC(=O)[C@H](CC(=O)O)NC(=O)[C@](C)(NC(=O)[C@H](C)NC(=O)[C@H](CC(=O)O)NC(=O)[C@H](Cc2ccccc2)NC(C)=O)CCCCCCC=CCOC(=O)N2CC[C@@](C(=O)N[C@@H](Cc3ccccc3)C(=O)N[C@@H](Cc3c[nH]c4ccccc34)C(=O)N[C@@H](CCC(N)=O)C(N)=O)(C2)NC(=O)[C@H](C(C)C)NC(=O)[C@H](Cc2ccccc2)NC(=O)[C@H](C)NC(=O)[C@H](C)NC1=O (single isomer, unassigned) ?
2.01

---

# assaySummary: CHI Log D procedure
# Type: physicochemical
# testConditions: pH 7.4, CHI Log D
Returns rule met if the recorded chromatographic logD is greater than or equal to 2, and rule not met otherwise.

Look over these answered cases.
| molecule | classAssignment |
| --- | --- |
| CC[C@H](C)[C@@H]1NC(=O)[C@H](CC(=O)O)NC(=O)[C@]2(CC=CCCCC3(CCCC=CCCCCCC[C@@](C)(C(=O)N[C@@H](Cc4ccccc4)C(=O)N[C@@H](Cc4csc5ccccc45)C(=O)N[C@@H](CCC(N)=O)C(N)=O)NC(=O)[C@H](CCC(N)=O)NC(=O)[C@H](Cc4ccccc4)NC(=O)[C@H](CCC(N)=O)NC(=O)[C@H](C)NC(=O)[C@H](CCC(=O)O)NC(=O)[C@H](CC(=O)O)NC3=O)NC1=O)CCCN2C(C)=O (some centres unmarked) | rule not met |
| CC(=O)N1CCC[C@]12CC=CCCCC1(CCCC=CCCCCCC[C@@](C)(C(=O)N[C@@H](Cc3ccccc3)C(=O)N[C@@H](Cc3c[nH]c4ccccc34)C(=O)N[C@@H](CCC(N)=O)C(N)=O)NC(=O)[C@H](C(C)C)NC(=O)[C@H](Cc3ccccc3)NC(=O)[C@H](C)NC(=O)[C@H](C)NC(=O)[C@H](Cc3ccc(N)cc3)NC(=O)[C@H](CC(=O)O)NC1=O)NC(=O)[C@H](C)NC(=O)[C@H](CC(=O)O)NC2=O (some centres unmarked) | rule met |
| CC(=O)N1CCC[C@]12CC=CCCCC1(CCCC=CCCCOC(=O)N3CC[C@@](C(=O)N[C@@H](Cc4ccsc4)C(=O)N[C@@H](Cc4csc5ccccc45)C(=O)N[C@@H](CCC(N)=O)C(N)=O)(C3)NC(=O)[C@H](CC(N)=O)NC(=O)[C@H](Cc3ccccc3)NC(=O)[C@H](C)NC(=O)[C@H](C)NC(=O)[C@H](CC(=O)O)NC(=O)[C@H](CC(=O)O)NC1=O)NC(=O)[C@H](CC(C)(C)C)NC(=O)C[C@H](CC(=O)O)NC2=O (some centres unmarked) | rule not met |

Check this molecule for chromatographic logD at or above 2: CC(=O)N1CCC[C@]12CC=CCCCC1(CCCC=CCCCOC(=O)N3CC[C@@](C(=O)N[C@@H](Cc4ccsc4)C(=O)N[C@@H](Cc4csc5ccccc45)C(=O)N[C@@H](CCC(N)=O)C(N)=O)(C3)NC(=O)[C@H](CC(N)=O)NC(=O)[C@H](Cc3ccccc3)NC(=O)[C@H](C)NC(=O)[C@H](C)NC(=O)[C@H](CCCNC(N)=O)NC(=O)[C@H](CC(=O)O)NC1=O)NC(=O)[C@H](CC(C)(C)C)NC(=O)[C@H](CC(=O)O)NC2=O (some centres unmarked)
rule met

Answer whether chromatographic logD of CC(=O)N1CCC[C@]12CC=CCCCC1(CCCC=CCCCOC(=O)N3CC[C@@](C(=O)N[C@@H](Cc4ccccc4Br)C(=O)N[C@@H](Cc4csc5ccccc45)C(=O)N[C@@H](CCC(N)=O)C(N)=O)(C3)NC(=O)[C@H](CC(N)=O)NC(=O)[C@H](Cc3ccccc3)NC(=O)[C@H](C)NC(=O)[C@H](C)NC(=O)[C@H](CN(CC(=O)O)CC(F)(F)F)NC(=O)[C@H](CC(=O)O)NC1=O)NC(=O)[C@H](CC(C)(C)C)NC(=O)[C@H](CC(=O)O)NC2=O (some centres unmarked) is greater than or equal to 2.
rule met

---

Form field: CHI Log D (one value per entry).
# assaySummary: CHI Log D procedure
# Format: physicochemical
# testConditions: pH 7.4
Lab note: record just the number, no unit beside it.

Observe how each entry below is paired with its result.
| compound | value |
| --- | --- |
| CC(=O)N[C@@H](Cc1ccccc1)C(=O)N[C@@H](CC(=O)O)C(=O)N[C@@H](C)C(=O)N[C@]1(C)CCCCCCC=CCOC(=O)N2CC[C@@](C(=O)N[C@@H](Cc3c(F)c(F)c(F)c(F)c3F)C(=O)N[C@@H](Cc3c[nH]c4ccccc34)C(=O)N[C@@H](CCC(N)=O)C(N)=O)(C2)NC(=O)[C@H](C(C)C)NC(=O)[C@H](Cc2ccccc2)NC(=O)[C@H](C)NC(=O)[C@H](C)NC(=O)[C@H](CC(=O)O)NC(=O)[C@H](CC(=O)O)NC1=O [I-226] | 1.497 |
| CC(=O)N1CCC[C@]12CC=CCCCC1(CCCC=CCCCCCC[C@@](C)(C(=O)N[C@@H](Cc3ccccc3)C(=O)N[C@@H](Cc3csc4ccccc34)C(=O)N[C@H](C(N)=O)[C@@H](C)O)NC(=O)[C@H](CCC(N)=O)NC(=O)[C@H](Cc3ccccc3)NC(=O)[C@H](C)NC(=O)[C@H](C)NC(=O)[C@H](CCC(=O)O)NC(=O)[C@H](CC(=O)O)NC1=O)NC(=O)[C@H](C)NC(=O)[C@H](CC(=O)O)NC2=O (stereo partly drawn) [I-507] | 2.079 |

Then this compound:
Please give the measured CHI Log D for this compound: CC(=O)N1CCC[C@]12CC=CCCCC1(CCCC=CCCCCCC[C@@](C)(C(=O)N[C@@H](Cc3cccc(C(F)(F)F)c3)C(=O)N[C@@H](Cc3c[nH]c4ccccc34)C(=O)N[C@@H](CCC(N)=O)C(N)=O)NC(=O)[C@H](C(C)C)NC(=O)[C@H](Cc3ccccc3)NC(=O)[C@H](C)NC(=O)[C@H](C)NC(=O)[C@H](CC(=O)O)NC(=O)[C@H](CC(=O)O)NC1=O)NC(=O)[C@H](C)NC(=O)[C@H](CC(=O)O)NC2=O (stereo partly drawn) [I-251]
2.299

---

# studySystem: beta-catenin/TCF4 engagement (Homo sapiens, UniProt P35222)
# Construct: expressed in transfected cells; host or cells: HEK293
# Sequence (P35222 1-781): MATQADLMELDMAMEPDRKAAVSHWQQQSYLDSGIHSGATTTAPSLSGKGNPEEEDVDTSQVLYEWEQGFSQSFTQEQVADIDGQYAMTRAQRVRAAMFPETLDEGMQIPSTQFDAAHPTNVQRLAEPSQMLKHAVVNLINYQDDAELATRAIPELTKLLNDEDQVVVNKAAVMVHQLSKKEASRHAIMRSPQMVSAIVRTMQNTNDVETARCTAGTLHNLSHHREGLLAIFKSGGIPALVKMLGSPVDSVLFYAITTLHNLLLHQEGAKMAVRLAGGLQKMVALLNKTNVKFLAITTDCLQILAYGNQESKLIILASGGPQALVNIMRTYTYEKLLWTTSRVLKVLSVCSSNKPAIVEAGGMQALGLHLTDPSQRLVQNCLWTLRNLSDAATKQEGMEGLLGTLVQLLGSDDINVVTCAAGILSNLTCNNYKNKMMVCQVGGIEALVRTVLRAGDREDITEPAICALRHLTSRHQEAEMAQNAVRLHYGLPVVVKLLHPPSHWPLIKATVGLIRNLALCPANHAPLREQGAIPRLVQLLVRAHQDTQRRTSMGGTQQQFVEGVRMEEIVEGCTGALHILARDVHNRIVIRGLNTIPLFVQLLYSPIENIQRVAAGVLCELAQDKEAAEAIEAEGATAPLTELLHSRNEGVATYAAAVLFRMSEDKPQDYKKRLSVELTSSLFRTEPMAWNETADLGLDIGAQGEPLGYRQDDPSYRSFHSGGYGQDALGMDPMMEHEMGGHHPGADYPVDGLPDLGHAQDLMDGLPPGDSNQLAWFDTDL
# assaySummary: Nano-BRET target engagement assay (B-cat-Halo & TCF4-Luc in HEK293 cells)
# Assay type: cell-based
# testConditions: absolute IC50; read-out: NanoBRET Abs IC50
Documented IC50 across a set of compounds

| compound | studySystem | value |
| --- | --- | --- |
| CC(=O)N1CCC[C@]12CC=CCCCCC1(CCCCC=CCOC(=O)N3CC[C@@](C(=O)N[C@@H](Cc4ccccc4C(F)(F)F)C(=O)N[C@@H](Cc4csc5ccccc45)C(=O)N[C@@H](CCC(N)=O)C(N)=O)(C3)NC(=O)[C@H](CC(C)C)NC(=O)[C@H](Cc3ccccc3)NC(=O)[C@H](C)NC(=O)[C@H](C)NC(=O)[C@H](Cc3cccc(C(=O)O)c3)NC(=O)[C@H](CC(=O)O)NC1=O)NC(=O)[C@H](CC(C)(C)C)NC(=O)[C@H](CC(=O)O)NC2=O (some centres unmarked) [I-2518] | beta-catenin/TCF4 engagement (Homo sapiens, UniProt P35222) | > 20 µM |

Now let's try a different one.
Could you share which IC50 value was measured for CC(=O)N1CCC[C@]12CC=CCCCC1(CCCC=CCCCOC(=O)N3CC[C@@](C(=O)N[C@@H](Cc4ccccc4C(F)(F)F)C(=O)N[C@@H](Cc4csc5ccccc45)C(=O)N[C@@H](CCC(=O)N4CCOCC4)C(N)=O)(C3)NC(=O)[C@H](CC(C)C)NC(=O)[C@H](Cc3ccccc3)NC(=O)[C@H](C)NC(=O)[C@H](C)NC(=O)[C@H](Cc3cccc(C(=O)O)c3)NC(=O)[C@H](CC(=O)O)NC1=O)NC(=O)[C@H](CC(C)(C)C)NC(=O)[C@H](CC(=O)O)NC2=O (some centres unmarked) [I-2541] ?
4.7 µM
